System: GLUT4
Test: Western blot of GLUT4 expression in skeletal muscles of streptozotocin-induced diabetic rats
Assay type: in vivo, Sprague-Dawley rats
Conditions: STZ diabetic rats, skeletal muscle membrane, daily treatment for 28 days from day 15 after STZ, i.p. (Table 1), densitometry, n=6; normal control 100, diabetic control 80
Consider the following compounds; for each one, report its Band Intensity of GLUT4 (%) 54 kDa.
Give the figure together with its unit, number first.

The examples below pair each entry with its known result.
>  <compound>
C[S+]([O-])CCCCN=C=S (centres unmarked)

>  <target-or-system>
GLUT4

>  <Band Intensity of GLUT4 (%) 54 kDa>
95%

$$$$
>  <compound>
C[C@H](O)C(=O)N[C@@H](Cc1ccccc1)C(=O)O

>  <target-or-system>
GLUT4

>  <Band Intensity of GLUT4 (%) 54 kDa>
106%

$$$$
>  <compound>
CC1=C(O)C(=O)C=C2C1=CC=C1[C@@]2(C)CC[C@@]2(C)[C@@H]3C[C@](C)(C(=O)O)CC[C@]3(C)CC[C@]12C

>  <target-or-system>
GLUT4

>  <Band Intensity of GLUT4 (%) 54 kDa>
95%

$$$$
>  <compound>
O=C(O)CC(=O)C(=O)O

>  <target-or-system>
GLUT4

>  <Band Intensity of GLUT4 (%) 54 kDa>
102%

$$$$
>  <compound>
CC(C)CC(N)C(=O)NC(CC(C)C)C(=O)O (centres unmarked)

>  <target-or-system>
GLUT4

>  <Band Intensity of GLUT4 (%) 54 kDa>
98%

$$$$
>  <compound>
CC(CN)C(=O)O (centres unmarked)

>  <target-or-system>
GLUT4

>  <Band Intensity of GLUT4 (%) 54 kDa>
104%

$$$$

I'm hoping you can list Band Intensity of GLUT4 (%) 54 kDa for every compound here, please.
1. CCCCCCCCCCCCCCC(=O)O
2. CC1=CC(=O)CC(C)(C)[C@@]1(O)/C=C/C(C)=C\C(=O)O

1: 100%; 2: 110%

----------
Tested on: GLUT4
Assay: Western blot of GLUT4 expression in skeletal muscles of streptozotocin-induced diabetic rats
Type: in vivo, Sprague-Dawley rats
Set-up: concentration or dose not given beside the values
Conditions: STZ diabetic rats, skeletal muscle, 28 days treatment, versus diabetic control G2
endpoint-label: % Increase of Glut4 over Disease control (%)
Answers are plain numbers, in %.

>  <compound>
C[C@H](O)C(=O)N[C@@H](Cc1ccccc1)C(=O)O

>  <endpoint-label>
% Increase of Glut4 over Disease control

>  <quantity-unit>
%

>  <readout-value>
32.5

$$$$
>  <compound>
CC(C)CC(N)C(=O)NC(CC(C)C)C(=O)O (centres unmarked)

>  <endpoint-label>
% Increase of Glut4 over Disease control

>  <quantity-unit>
%

>  <readout-value>
22.5

$$$$
>  <compound>
C[S+]([O-])CCCCN=C=S (centres unmarked)

>  <endpoint-label>
% Increase of Glut4 over Disease control

>  <quantity-unit>
%

>  <readout-value>
18.8

$$$$
>  <compound>
CCCCCCCCCCCCCCC(=O)O

>  <endpoint-label>
% Increase of Glut4 over Disease control

>  <quantity-unit>
%

>  <readout-value>
25.0

$$$$
>  <compound>
O=C(O)CC(=O)C(=O)O

>  <endpoint-label>
% Increase of Glut4 over Disease control

>  <quantity-unit>
%

>  <readout-value>
27.5

$$$$
>  <compound>
CC1=C(O)C(=O)C=C2C1=CC=C1[C@@]2(C)CC[C@@]2(C)[C@@H]3C[C@](C)(C(=O)O)CC[C@]3(C)CC[C@]12C

>  <endpoint-label>
% Increase of Glut4 over Disease control

>  <quantity-unit>
%

>  <readout-value>
18.8

$$$$
>  <compound>
CC(CN)C(=O)O (centres unmarked)

>  <endpoint-label>
% Increase of Glut4 over Disease control

>  <quantity-unit>
%

>  <readout-value>
30.0

$$$$

Reported % Increase of Glut4 over Disease control for GLUT4, given CC1=CC(=O)CC(C)(C)[C@@]1(O)/C=C/C(C)=C\C(=O)O ?
37.5
